Molecular target: IRE1α (Homo sapiens (Human), UniProt O75460, D688N)
Sequence (O75460 547-977 D688N): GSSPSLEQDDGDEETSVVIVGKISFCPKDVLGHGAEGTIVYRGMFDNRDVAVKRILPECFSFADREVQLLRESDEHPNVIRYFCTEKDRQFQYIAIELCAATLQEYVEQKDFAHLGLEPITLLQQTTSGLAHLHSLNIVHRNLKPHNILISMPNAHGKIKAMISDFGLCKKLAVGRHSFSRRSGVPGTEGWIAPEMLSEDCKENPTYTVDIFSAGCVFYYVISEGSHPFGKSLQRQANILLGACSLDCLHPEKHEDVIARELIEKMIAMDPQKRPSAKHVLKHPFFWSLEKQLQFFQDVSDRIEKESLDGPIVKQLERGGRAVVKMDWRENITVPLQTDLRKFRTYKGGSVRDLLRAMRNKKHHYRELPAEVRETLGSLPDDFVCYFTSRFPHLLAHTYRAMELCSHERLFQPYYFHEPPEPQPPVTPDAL
Experiment: IRE1α TR-FRET competition binding assay (IRE1α HTRF)
Settings: TR-FRET competition binding to kinase domain of IRE1α
quantity-measured: log10 of IC50 (log10 of the value in nM)
Units before log transform: nM; reported quantity: IC50; transform: log10.

Field: example entries. Status: answers known.
CC(C)n1c(=O)c(-c2cc(F)c(NC(=O)CC3CCC3)c(F)c2F)cc2cnc(N[C@H]3CC[C@H](N(C)C)CC3)nc21    0.34
CC(C)n1c(=O)c(-c2ccc(NS(=O)(=O)CC3(C(F)(F)F)CCC3)c(F)c2)nc2cnc(N[C@H]3CC[C@H](N(C)C)CC3)nc21    -0.70
Cc1nc(NS(=O)(=O)c2ccccc2Cl)ccc1-c1cc2cnc(N[C@@H]3CNC[C@@H](F)C3)nc2n(C(C)C)c1=O    -0.21
CC(C)n1c(=O)c(-c2ccc(NS(=O)(=O)CCC(F)(F)F)c(F)c2)cc2cnc(N[C@H]3CC[C@H](N(C)CCF)CC3)nc21    -0.85
CC(C)n1c(=O)c(-c2ccc(NS(=O)(=O)C3C4CCCCC43)c(F)c2)nc2cnc(N[C@H]3CC[C@H](N(C)C)CC3)nc21 (stereo partly drawn)    -0.40

In the following, a different molecule is considered.
// returns reported log10 of IC50 for input CC(C)n1c(=O)c(-c2ccc(NS(=O)(=O)CCC(C)(F)F)c(F)c2)nc2cnc(N[C@@H]3CNC[C@@H](F)C3)nc21
-0.40

* * *

Target: IRE1α (Homo sapiens (Human), UniProt O75460, D688N)
Assay: IRE1α TR-FRET competition binding assay (IRE1α HTRF)
Settings: TR-FRET competition binding to kinase domain of IRE1α
Where a name gives a salt, the structure may show the parent alone.
quantity-measured: pIC50
Schema: pIC50 number; meaning minus log10 of the concentration expressed in molar units.

Answered examples (5):
CC(C)n1c(=O)c(-c2ccc(NS(=O)(=O)CC3C(F)(F)C34CCC4)c(F)c2)nc2cnc(N[C@H]3CC[C@H](N(C)C)CC3)nc21 (stereo partly drawn)    9.70
CC(C)n1c(=O)c(-c2ccc(NS(=O)(=O)CCC(F)(F)F)c(F)c2)nc2cnc(N[C@@H]3CC[C@@H](N(C)C)[C@H](F)C3)nc21 (stereo in doubt) [Compound 179B]    9.82
O=c1c(-c2ccc(NS(=O)(=O)Cc3ccccc3)c(F)c2F)cc2cnc(N[C@@H]3CNC[C@@H](F)C3)nc2n1CC(F)(F)F    8.77
CC(C)n1c(=O)c(-c2ccc(NS(=O)(=O)CCC(F)(F)F)c(F)c2)cc2cnc(NC3CCN(C)CC3)nc21 [Compound 200, formate]    7.70
CC(C)n1c(=O)c(-c2ccc(NS(=O)(=O)Cc3ccccc3C#N)c(F)c2)nc2cnc(N[C@@H]3CNC[C@@H](F)C3)nc21    9.70

// next item, pIC50 requested
What value of pIC50 has been reported for the following compound? CC(C)Nc1ncc2cc(-c3cc(F)c(NS(=O)(=O)Cc4ccccc4)c(F)c3F)c(=O)n(C(C)C)c2n1
8.92

* * *

Target: IRE1α (Homo sapiens (Human), UniProt O75460, D688N)
Test: IRE1α TR-FRET competition binding assay (IRE1α HTRF)
Conditions: TR-FRET competition binding to kinase domain of IRE1α
quantity-measured: pIC50
pIC50 is defined as minus the log10 of a concentration measured in mol/L.

Cc1nc(NS(=O)(=O)CCC(F)(F)F)ccc1-c1nc2cnc(N[C@H]3CC[C@H](N(C)C)CC3)nc2n(C(C)C)c1=O    8.15
CC(C)CC(=O)Nc1c(F)cc(-c2cc3cnc(N[C@H]4CC[C@H](N(C)C)CC4)nc3n(C(C)C)c2=O)c(F)c1F    8.49
CC(C)n1c(=O)c(-c2cc(F)c(NS(=O)(=O)Cc3ccccc3)c(F)c2F)cc2cnc(N[C@H]3CC[C@H](N(C)C)CC3)nc21    8.57
CC(C)n1c(=O)c(-c2ccc(NS(=O)(=O)CC3CCCC3)c(F)c2)nc2cnc(N[C@H]3CC[C@H](N(C)C)CC3)nc21    10.00
CC(C)n1c(=O)c(-c2ccc(NS(=O)(=O)CCC(F)(F)F)c(F)c2)cc2cnc(NC3CCC(O)C(N(C)C)C3)nc21 (stereo not drawn)    8.27
CC(C)n1c(=O)c(-c2ccc(NS(=O)(=O)CC3CCC3(F)F)c(F)c2)cc2cnc(N[C@H]3CC[C@H](N(C)C)CC3)nc21 (single isomer, unassigned) [Compound 153A]    9.68

Given the compound CC(C)n1c(=O)c(-c2cc(F)c(NS(=O)(=O)Cc3ccn(C)n3)c(F)c2F)cc2cnc(N[C@@H]3CNC[C@@H](F)C3)nc21 , what is its reported pIC50?
9.41

Item CC(C)n1c(=O)c(-c2ccc(NS(=O)(=O)c3ccccc3Cl)c(F)c2)nc2cnc(N[C@@H]3CNC[C@@H](F)C3)nc21 has what recorded pIC50?
9.52

Sample CC(C)n1c(=O)c(-c2cc(F)c(NS(=O)(=O)Cc3ccccc3)c(F)c2F)cc2cnc(N[C@H]3CC[C@H](N)CC3)nc21 — what was its pIC50?
9.77

Look up pIC50: CC(C)n1c(=O)c(-c2ccc(NS(=O)(=O)CC3CCC3(F)F)c(F)c2)cc2cnc(N[C@H]3CC[C@H](N(C)C)CC3)nc21 (single isomer, unassigned) [Compound 153B]
9.80

Which pIC50 value belongs to CC(C)n1c(=O)c(-c2cc(F)c(NS(=O)(=O)CCC(F)(F)F)c(F)c2)cc2cnc(NC3CC[C@H](N(C)C)C(F)C3)nc21 (single isomer, unassigned) [Compound 118B] ?
9.49

Would you kindly share the measured pIC50 for CC(C)n1c(=O)c(-c2ccc(NS(=O)(=O)CC3CCCC3(F)F)c(F)c2)nc2cnc(N[C@H]3CC[C@H](N(C)C)CC3)nc21 (mixture of isomers) ?
10.00

Reference source for all entries: patent US12344603B2
